# MEASURED_ON: P-selectin/PSGL-1 interaction (Homo sapiens, UniProt P16109)
# Construct: comprised of the lectin and epidermal growth factor-like (EGF) domains expressed in CHO cells; made in house; host or cells: CHO cells (P-LE)
# Sequence (P16109 42-198): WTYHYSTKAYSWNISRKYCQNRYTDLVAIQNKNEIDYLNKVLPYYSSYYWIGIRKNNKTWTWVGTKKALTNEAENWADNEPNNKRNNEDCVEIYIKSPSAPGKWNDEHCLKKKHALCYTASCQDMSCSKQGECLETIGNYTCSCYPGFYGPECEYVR
# PROTOCOL: Biacore P-Selectin/PSGL-1 Inhibition Assay (surface plasmon resonance)
# Type: binding
# SETUP_CONDITIONS: 250 uM test compound, 500 nM P.LE, immobilized PSGL-1 19ek, 10% DMSO, pH 7.4
READOUT_LABEL: inhibition at 250 µM (%)

Before answering, review these 3 worked examples.
CCc1cccc2c(C(=O)O)c(O)c(C3(c4ccc(Cl)cc4)CC3)nc12 [Compound 2]; 67
CC(C)c1cccc2c(C(=O)O)c(O)c(CC(C)c3ccccc3)nc12 (stereo not shown) [Compound 136]; 64
Cc1ccc(C2(c3nc4c(C(C)C)cccc4c(C(=O)O)c3O)CC2)cc1 [Compound 86]; 54

a. Cc1cc(C(F)(F)F)c2nc(C3(c4ccc(Cl)cc4)CC3)c(O)c(C(=O)O)c2c1 [Compound 94]
b. O=C(O)c1c(O)c(C2(c3ccc(Cl)cc3)CC2)nc2ccc(OC(F)(F)F)cc12 [Compound 21]
c. Cc1cccc2c(C(=O)O)c(O)c(C3(c4ccc(Cl)cc4)CC3)nc12 [Compound 11]
Lookup: // ranking: key=inhibition at 250 µM, reverse=True Answer by listing the labels in the requested order.
Found: a, c, b
(a: 65%, c: 43%, b: 28%)
